tested on: FGFR1; settings: concentration: 1 μM, replicates: in singlicate; n = 1;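 further: KINOMEscan kinase panel screen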
Listed here are compounds together with their documented %Inh.
Hi! Could you send only the number? It should be in %, unit omitted.

Please review the following examples before continuing.
# COMPOUND, VALUE_UNITS, %Inh
measured = [
    ("COc1cc2c(cc1OCCN1CCNCC1)ncc1c3ccc(C#N)cc3[nH]c21", "%", 0),
    ("CN1CCN(CCCNc2nccc(-c3c(-c4ccc(F)cc4)nn4cc(C(F)(F)F)ccc34)n2)CC1 [GW621581]", "%", 25),
    ("CC(=O)Nc1nc2cnc(Nc3cc(NC(=O)c4cccc(C5(C#N)CC5)c4Cl)ccc3C)nc2s1", "%", 2),
]

[in] Need %Inh of c1ccc(-c2n[nH]cc2Nc2ccnc3ccccc23)nc1 [GW694077] , thanks.
[out] 0
